src = patent US12473291B2

- Tested on: KM mice
- EXPERIMENTAL_PROTOCOL: animal or person
- Type: in vivo
- MEASUREMENT_CONDITIONS: mice, tail vein, in words
PARAMETER_MEASURED: effective dose compared with remimazolam

[
  {
    "COMPOUND": "COC(=O)OCOC(=O)CC[C@@H]1N=C(c2ccccn2)c2cc(Br)ccc2-n2c(C)cnc21 [Example 34]",
    "PARAMETER_MEASURED": "effective dose compared with remimazolam",
    "VALUE_REPORTED": "significantly lower"
  },
  {
    "COMPOUND": "COC(=O)OC(C)OC(=O)CC[C@@H]1N=C(c2ccccn2)c2cc(Br)ccc2-n2c(C)cnc21 (stereo partly drawn) [Example 53]",
    "PARAMETER_MEASURED": "effective dose compared with remimazolam",
    "VALUE_REPORTED": "significantly lower"
  },
  {
    "COMPOUND": "CCOC(=O)C1(OC(=O)CC[C@@H]2N=C(c3ccccn3)c3cc(Br)ccc3-n3c(C)cnc32)CC1 [Example 59]",
    "PARAMETER_MEASURED": "effective dose compared with remimazolam",
    "VALUE_REPORTED": "significantly lower"
  }
]
